# tested-on: human DGAT2 (hDGAT2) (Homo sapiens (Human), UniProt Q96PD7)
# Sequence (Q96PD7 whole entry): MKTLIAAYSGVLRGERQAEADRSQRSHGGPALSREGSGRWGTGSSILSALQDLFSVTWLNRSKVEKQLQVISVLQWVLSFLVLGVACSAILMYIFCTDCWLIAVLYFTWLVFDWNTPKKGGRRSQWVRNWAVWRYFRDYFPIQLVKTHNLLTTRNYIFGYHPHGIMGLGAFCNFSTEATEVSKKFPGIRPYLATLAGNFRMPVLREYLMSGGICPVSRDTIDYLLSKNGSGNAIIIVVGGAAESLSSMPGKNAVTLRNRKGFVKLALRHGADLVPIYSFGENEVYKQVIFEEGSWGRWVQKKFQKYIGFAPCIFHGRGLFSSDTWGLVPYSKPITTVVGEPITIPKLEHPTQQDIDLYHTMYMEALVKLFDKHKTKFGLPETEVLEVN
# measurement-notes: DGAT2 enzymatic activity assay (13C18-triolein formation, LC/MS/MS)
# Format: biochemical
# assay-context: hDGAT2 Sf-9 membrane prep, 25 μM diolein, 5 μM 13C oleoyl-CoA; read-out: Human DGAT2 IC50
readout-kind: IC50 (nM)

Some entries whose results are on file:
{"columns": ["compound", "IC50 (nM)"],
 "data": [
  ["CC1(NC(=O)c2cnc3c(-c4cccc(OC(F)F)c4)nn([C@@H]4COC[C@H]4O)c3c2)CS(=O)(=O)C1 (single isomer, unassigned) [Example 53b]", 132],
  ["C[C@]1(NC(=O)c2cnc3c(-c4cccc(OC(F)F)c4)nn(-c4ccc(F)cc4)c3c2)CCS(=O)(=O)C1", 0.8],
  ["CC1(NC(=O)c2cnc3c(-c4cccc(OC(F)F)c4)nn(C4CCOCC4F)c3c2)CS(=O)(=O)C1 (single isomer, unassigned) [Example 75a]", 29],
  ["CC(C)n1nc(-c2cccc(OC(F)F)c2)c2ncc(C(=O)NC3(C)CCOC3)cc21 (single isomer, unassigned) [Example 48a]", 6.3]
]}

A. CC(O)C(C)NC(=O)c1cnc2c(-c3cccc(OC(F)F)c3)nn(C(C)C)c2c1 (single isomer, unassigned) [Example 45b]
B. CC(C)n1nc(-c2cccc(OC(F)F)c2)c2ncc(C(=O)NC3(C(C)O)CCOC3)cc21 (single isomer, unassigned) [Example 50b]
Please compare: A and B . Report which one has the smaller IC50 value. Select an item and report its label.
B
(B: 31 nM, A: 520 nM)

###

# tested-on: human DGAT2 (hDGAT2) (Homo sapiens (Human), UniProt Q96PD7)
# measurement-notes: DGAT2 enzymatic activity assay (13C18-triolein formation, LC/MS/MS)
# Format: biochemical
# assay-context: hDGAT2 Sf-9 membrane prep, 25 μM diolein, 5 μM 13C oleoyl-CoA; read-out: Human DGAT2 IC50
pIC50: −log10 of the molar value.
readout-kind: pIC50

Some entries whose results are on file:
{"columns": ["molecule", "tested-on", "result-value"],
 "data": [
  ["CC(C)n1nc(-c2cccc(OC(F)F)c2)c2ncc(C(=O)NC3(C(C)(C)O)CCOC3)cc21 (single isomer, unassigned) [Example 47a]", "human DGAT2 (hDGAT2) (Homo sapiens (Human), UniProt Q96PD7)", 5.85],
  ["CC(O)C(C)NC(=O)c1cnc2c(-c3cccc(OC(F)F)c3)nn(C(C)C)c2c1 (single isomer, unassigned) [Example 45d]", "human DGAT2 (hDGAT2) (Homo sapiens (Human), UniProt Q96PD7)", 5.56],
  ["CC(C)n1nc(-c2cccc(OC(F)F)c2)c2ncc(C(=O)NC3(CO)CCOC3)cc21 (single isomer, unassigned) [Example 39a]", "human DGAT2 (hDGAT2) (Homo sapiens (Human), UniProt Q96PD7)", 7.72],
  ["O=C(N[C@@H]1CCC[C@H]1N1CCOCC1)c1cnc2c(-c3cccc(OC(F)F)c3)cn(-c3ncc(F)cn3)c2c1 [Example 7]", "human DGAT2 (hDGAT2) (Homo sapiens (Human), UniProt Q96PD7)", 7.35],
  ["CC(C)n1nc(-c2cccc(OC(F)F)c2)c2ncc(C(=O)NC3(C)CCOC3)cc21 (single isomer, unassigned) [Example 48b]", "human DGAT2 (hDGAT2) (Homo sapiens (Human), UniProt Q96PD7)", 7.80]
]}

1. CN1CCC(n2nc(-c3cccc(OC(F)F)c3)c3ncc(C(=O)NC4(C)CS(=O)(=O)C4)cc32)CC1 [Example 134]
2. CC(C)n1nc(-c2cccc(C3(O)CC3)c2)c2ncc(C(=O)NC3(C)CS(=O)(=O)C3)cc21 [Example 127]
Please compare: 1 and 2 . Report which one has the smaller pIC50 value. Select an item and report its label.
2
(2: 6.53, 1: 7.48)

###

# tested-on: human DGAT2 (hDGAT2) (Homo sapiens (Human))
# measurement-notes: DGAT2 enzymatic activity assay (13C18-triolein formation, LC/MS/MS)
# Format: biochemical
# assay-context: hDGAT2 Sf-9 membrane prep, 25 μM diolein, 5 μM 13C oleoyl-CoA; read-out: Human DGAT2 IC50
pIC50: −log10 of the molar value.
readout-kind: pIC50

{"columns": ["compound", "result-value"],
 "data": [
  ["CC(C)n1nc(-c2cccc(OC(F)F)c2)c2ncc(C(=O)NC3(C(C)(C)O)CCOC3)cc21 (single isomer, unassigned) [Example 47b]", 7.30]
]}

a. C[C@]1(NC(=O)c2cnc3c(-c4cccc(OC(F)F)c4)nn(C4CCOC4)c3c2)CCS(=O)(=O)C1 (single isomer, unassigned) [Example 60b]
b. CC(O)Cn1nc(-c2cccc(OC(F)F)c2)c2ncc(C(=O)NC3(C)CS(=O)(=O)C3)cc21 (single isomer, unassigned) [Example 68a]
Endpoint returns whichever of a and b has the numerically higher pIC50. Select an item and report its label.
b

###

# tested-on: human DGAT2 (hDGAT2) (Homo sapiens (Human), UniProt Q96PD7)
# measurement-notes: DGAT2 enzymatic activity assay (13C18-triolein formation, LC/MS/MS)
# Assay type: biochemical
# assay-context: hDGAT2 Sf-9 membrane prep, 25 μM diolein, 5 μM 13C oleoyl-CoA; read-out: Human DGAT2 IC50
readout-kind: IC50 (nM)

Some entries whose results are on file:
{"columns": ["compound", "quantity-unit", "result-value"],
 "data": [
  ["CC1(NC(=O)c2cnc3c(-c4cccc(OC(F)F)c4)nn(CC(O)C(F)(F)F)c3c2)CS(=O)(=O)C1 (single isomer, unassigned) [Example 67b]", "nM", 90],
  ["CCC(C)n1nc(-c2cccc(OC(F)F)c2)c2ncc(C(=O)NC3(C)CS(=O)(=O)C3)cc21 (single isomer, unassigned) [Example 66a]", "nM", 71],
  ["CC(C)n1nc(-c2cccc(OC(F)F)c2)c2ncc(C(=O)NC3(C(C)O)CCOC3)cc21 (single isomer, unassigned) [Example 50a]", "nM", 132]
]}

a. CC(C)n1nc(-c2cccc(OC(F)F)c2)c2ncc(C(=O)NC(C)(C)CO)cc21 [Example 42]
b. CC1(NC(=O)c2cnc3c(-c4cccc(OC(F)F)c4)nn([C@@H]4COC[C@H]4O)c3c2)CS(=O)(=O)C1 (single isomer, unassigned) [Example 53a]
Please compare: a and b . Report which one has the smaller IC50 value. Select an item and report its label.
b
(b: 16 nM, a: 38 nM)

Source listed as patent US11787810B2.
